Target: CLR/RAMP1 receptor (UniProt Q16602 23-461; O60894 27-148, limits assumed)
Sequence (Q16602 23-461 limits assumed, chain 1 of 2): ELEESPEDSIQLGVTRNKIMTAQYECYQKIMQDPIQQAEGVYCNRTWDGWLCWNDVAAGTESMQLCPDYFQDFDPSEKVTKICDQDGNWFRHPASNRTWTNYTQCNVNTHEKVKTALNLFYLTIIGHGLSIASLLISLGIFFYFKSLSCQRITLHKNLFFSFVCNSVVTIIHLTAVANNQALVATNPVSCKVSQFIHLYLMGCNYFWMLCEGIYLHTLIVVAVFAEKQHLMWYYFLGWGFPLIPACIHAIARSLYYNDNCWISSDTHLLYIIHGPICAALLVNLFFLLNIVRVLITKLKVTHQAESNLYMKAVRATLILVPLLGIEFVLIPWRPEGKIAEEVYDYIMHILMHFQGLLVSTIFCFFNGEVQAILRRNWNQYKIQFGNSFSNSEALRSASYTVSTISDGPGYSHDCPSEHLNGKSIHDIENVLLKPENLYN
Sequence (O60894 27-148 limits assumed, chain 2 of 2): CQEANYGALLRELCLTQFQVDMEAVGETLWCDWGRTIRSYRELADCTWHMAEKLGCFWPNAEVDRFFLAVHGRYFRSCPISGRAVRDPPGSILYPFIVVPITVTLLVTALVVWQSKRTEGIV
Experiment: cell-based or functional assay
* marks the point of attachment. Palmitoyl = CCCCCCCCCCCCCCCC(=O)*; miniPEG = mini-PEG spacer unit
assay readout: CLR/RAMP1 IC50 (nM)

binder	relational operator	reported value
Ace-TVQKLAHRLWQLMGPDKDNVAPRSKISPQGY-NH2 [SEQ ID NO: 116]	=	152
Palmitoyl-KVQNLSHRLWQLMGPAGSAPVDPSSPHSY-NH2 [SEQ ID NO: 120]	=	5.8
Palmitoyl-KVQKLAHQIYQFTDKDSAPVDPSSPHSY-NH2 [SEQ ID NO: 121]	=	3.2
MiniPEG-KVQKLAHQIYSAPVDPSSPHSY-NH2 (also: K(Pal), Lys not given here) [SEQ ID NO: 114]	=	4.8
Ac-TVQKLAHQIYQFTDKDKDNSAPVDPSSPHSY-NH2 [SEQ ID NO: 76]	=	1120
Palmitoyl-TVQKLAHQIYQFTDKDKDNSAPVDPSSPHSY-NH2 [SEQ ID NO: 77]	=	9.9
YAGFLKVQKLSAPVDPSSPHSY (Ace- at N-terminus; (D-Ala) and (D-Leu) in Y(D-Ala)GF(D-Leu); miniPEG before K(Pal); K(Pal); -NH2) [SEQ ID NO: 145]	<	0.5
Palmitoyl-KVQKLAHQIYQFTDKDVAPRSKISPQGY-NH2 [SEQ ID NO: 119]	=	21
MiniPEG-KVQKLAHQIYQFTDKDSAPVDPSSPHSY-NH2 (also: K(Pal), Lys not given here) [SEQ ID NO: 112]	=	1.8
YGGFLRRIRPKLKKVQKLSAPVDPSSPHSY (Ace- at N-terminus; miniPEG between YGGFLRRIRPKLK and K(Pal); K(Pal); -NH2) [SEQ ID NO: 146]	<	0.5
Palmitoyl-KVQKLAHQISAPVDPSSPHSY-NH2 [SEQ ID NO: 123]	=	4.7
Ace-VTHRLAGLLSRFTDKDKDNVAPRSKISPQGY-NH2 [SEQ ID NO: 115]	=	1880
Palmitoyl-KVQKLAHQIYQFTDKSAPVDPSSPHSY-NH2 [SEQ ID NO: 125]	=	7
miniPEG-K(Palmitoyl)VQKLAHQIYQFTDKDKDNSAPVDPSSPHSY-NH2 [SEQ ID NO: 78]	=	4.8
Palmitoyl-KVQKLAHQIYSAPVDPSSPHSY-NH2 [SEQ ID NO: 122]	=	7.3
